tested on: blackgrass; assay: Test B preemergence/postemergence greenhouse plant response rating 0 to 10; assay type: in vivo, Alopecurus myosuroides; conditions: POSTEMERGENCE, Rate 10 g/ha; 0 to 10 scale
# Lookup of reported Plant response rating, Blackgrass keyed by entry
Format: numeric value only, no unit, no commentary.

compound | Plant response rating, Blackgrass
CC(C)N1C(=O)COc2cc(F)c(-c3nn4c(c3Cl)CCCC4)cc21 [Compound 31] | 4
C#CC(C)N1C(=O)COc2cc(F)c(-c3nn4c(c3Cl)CCCC4)cc21 (centres unmarked) [Compound 50] | 6
COCCN1C(=O)COc2cc(F)c(-c3nn4c(c3Cl)CCCC4)cc21 [Compound 53] | 5
COCN1C(=O)COc2cc(F)c(-c3nn4c(c3Br)CCCC4)cc21 [Compound 67] | 4
C=CCOC(=O)COc1cc(-c2nn3c(c2Cl)CCCC3)c(F)cc1Cl [Compound 62] | 1
CCCN1C(=O)COc2cc(F)c(-c3nn4c(c3Cl)CCCC4)cc21 [Compound 32] | 4
CC(C#N)Oc1cc(-c2nn3c(c2Cl)CCCC3)c(F)cc1Cl (centres unmarked) [Compound 60] | 3

We next turn to a different compound, shown below.
Asked: Using the record for C#CCN1C(=O)COc2cc(F)c(-c3nn4c(c3Br)CCCC4)cc21 [Compound 56] , report its Plant response rating, Blackgrass.
Given back: 6

====

# Lookup of reported Plant response rating (0 to 100), Crabgrass keyed by entry
test system: crabgrass; experiment: Test C preemergence/postemergence greenhouse plant response rating 0 to 100; type: in vivo, Digitaria sanguinalis; details: POSTEMERGENCE; Rate 4 g/ha
Format: numeric value only, no unit, no commentary.

Completed entries (count: 3):
molecule | numeric_readout
C#CCN1C(=O)COc2cc(F)c(-c3nn4c(c3Cl)CCCC4)cc21 [Compound 34] | 20
CC(C)COc1cc(-c2nn3c(c2Cl)CCCC3)c(F)cc1Cl [Compound 30] | 0
Fc1cc(Cl)c(OCCCl)cc1-c1nn2c(c1Cl)CCCC2 [Compound 49] | 10

Asked: Using the record for C#CCOc1cc(-c2nn3c(c2Br)CCCC3)c(F)cc1Cl [Compound 26] , report its Plant response rating (0 to 100), Crabgrass.
Given back: 0

Asked: Similarly, CCN1C(=O)COc2cc(F)c(-c3nn4c(c3Cl)CCCC4)cc21 [Compound 54] ?
Given back: 20

====

test system: corn; test: Test B preemergence/postemergence greenhouse plant response rating 0 to 10; assay type: in vivo, Zea mays; settings: Rate 200 g/ha, PREEMERGENCE; 0 to 10 scale
quantity_measured: Plant response rating, Corn
Format: numeric value only, no unit, no commentary.

Asked: Using the record for COc1cc(-c2nn3c(c2Cl)CCCC3)c(F)cc1Cl [Compound 29] , report its Plant response rating, Corn.
Given back: 6

Asked: Similarly, COC(=O)c1cc(-c2nn3c(c2Cl)CCCC3)c(F)cc1Cl [Compound 43] ?
Given back: 0

Asked: Similarly, CCOC(=O)COc1cc(-c2nn3c(c2Cl)CCCC3)c(F)cc1Cl [Compound 42] ?
Given back: 0

Asked: Similarly, C=CCOc1cc(-c2nn3c(c2Br)CCCC3)c(F)cc1Cl [Compound 37] ?
Given back: 3

Asked: Similarly, Fc1cc(Cl)ccc1-c1nn2c(c1Br)CCCC2 [Compound 52] ?
Given back: 4

Asked: Similarly, C=C(Cl)COc1cc(-c2nn3c(c2Cl)CCCC3)c(F)cc1Cl [Compound 40] ?
Given back: 1

Asked: Similarly, Clc1ccc(-c2nc3n(c2Br)CCCC3)c(Cl)c1 [Compound 2] ?
Given back: 0

Asked: Similarly, Clc1ccc(-c2nc3n(c2Cl)CCC=C3)c(Cl)c1 [Compound 1] ?
Given back: 0

====

system: cotton; experiment: Test B preemergence/postemergence greenhouse plant response rating 0 to 10; type: in vivo, Gossypium hirsutum; settings: PREEMERGENCE, Rate 200 g/ha
quantity_measured: Plant response rating (0 to 10 scale), Cotton
Format: numeric value only, no unit, no commentary.

compound | numeric_readout
C#CC(C)Oc1cc(-c2nn3c(c2Br)CCCC3)c(F)cc1Cl (centres unmarked) [Compound 66] | 0

Asked: Using the record for C=CCOc1cc(-c2nn3c(c2Cl)CCCC3)c(Cl)cc1Cl [Compound 71] , report its Plant response rating (0 to 10 scale), Cotton.
Given back: 0

====

tested on: umbrella sedge; test: Test C flood test plant response rating 0 to 100; format: in vivo, Cyperus difformis; conditions: Rate 16 g/ha; under POSTEMERGENCE head (flood test species)
# Lookup of reported Plant response rating (0 to 100), Umbrella sedge keyed by entry
Format: numeric value only, no unit, no commentary.

Completed entries (count: 4):
compound | numeric_readout
C#CCOc1cc(-c2nn3c(c2Br)CCCC3)c(F)cc1Cl | 70
COC(=O)c1cc(-c2nn3c(c2Cl)CCCC3)c(F)cc1Cl | 0
CC(C)N1C(=O)COc2cc(F)c(-c3nn4c(c3Cl)CCCC4)cc21 | 0
CC(C)OC(=O)c1cc(-c2nn3c(c2Cl)CCCC3)c(F)cc1Cl | 60

We next turn to a different compound, shown below.
Asked: Using the record for C#CC(C)Oc1cc(-c2nn3c(c2Cl)CCCC3)c(F)cc1Cl (centres unmarked) , report its Plant response rating (0 to 100), Umbrella sedge.
Given back: 0

====

Test system: rape
Test: Test B preemergence/postemergence greenhouse plant response rating 0 to 10
Type: in vivo, Brassica napus
Settings: POSTEMERGENCE, Rate 10 g/ha; 0 to 10 scale
From the text: Seeds of barley (Hordeum vulgare), barnyardgrass (Echinochloa crus-galli), bedstraw (Galium aparine), blackgrass (Alopecurus myosuroides), […] […] Treated plants and controls were maintained in a greenhouse for twelve to sixteen days, after which all species were compared to controls and visually evaluated. […]
# Lookup of reported Plant response rating, Rape keyed by entry
Format: numeric value only, no unit, no commentary.

Completed entries (count: 4):
molecule | Plant response rating, Rape
CC(C)N1C(=O)COc2cc(F)c(-c3nn4c(c3Cl)CCCC4)cc21 [Compound 31] | 5
C#CC(C)N1C(=O)COc2cc(F)c(-c3nn4c(c3Cl)CCCC4)cc21 (centres unmarked) [Compound 50] | 9
CCN1C(=O)COc2cc(F)c(-c3nn4c(c3Cl)CCCC4)cc21 [Compound 54] | 10
C=CCN1C(=O)COc2cc(F)c(-c3nn4c(c3Cl)CCCC4)cc21 [Compound 33] | 10

We next turn to a different molecule, shown below.
Asked: Using the record for C=CCOC(=O)COc1cc(-c2nn3c(c2Cl)CCCC3)c(F)cc1Cl [Compound 62] , report its Plant response rating, Rape.
Given back: 1

====

Tested on: ryegrass
Test: Test C preemergence/postemergence greenhouse plant response rating 0 to 100
Type: in vivo, Lolium multiflorum
Conditions: POSTEMERGENCE; Rate 4 g/ha
Source text: The compounds evaluated in this test were formulated in a non-phytoxic solvent and applied to the soil surface before plant seedlings emerged (preemergence application), to water that covered the soil surface (flood application), and to plants that were in the one-to-four leaf stage (postemergence application). A sandy loam soil was used for the preemergence and postemergence tests, while a silt loam soil was used in the flood test. […]
# Lookup of reported Plant response rating (0 to 100), Ryegrass keyed by entry
Format: numeric value only, no unit, no commentary.

Completed entries (count: 5):
smiles_str | measured_on | numeric_readout
COCN1C(=O)COc2cc(F)c(-c3nn4c(c3Cl)CCCC4)cc21 | ryegrass | 30
Fc1cc(Cl)c(OCCCl)cc1-c1nn2c(c1Cl)CCCC2 | ryegrass | 20
CCN1C(=O)COc2cc(F)c(-c3nn4c(c3Cl)CCCC4)cc21 | ryegrass | 30
COc1cc(-c2nn3c(c2Cl)CCCC3)c(F)cc1Cl | ryegrass | 30
C#CCN1C(=O)COc2cc(F)c(-c3nn4c(c3Br)CCCC4)cc21 | ryegrass | 40

Asked: Identify the measured Plant response rating (0 to 100), Ryegrass of `COC(=O)c1cc(-c2nn3c(c2Cl)CCCC3)c(F)cc1Cl` for ryegrass.
Given back: 30

Asked: Similarly, `CC(C)OC(=O)c1cc(-c2nn3c(c2Cl)CCCC3)c(F)cc1Cl` ?
Given back: 20

Asked: Similarly, `C=CCN1C(=O)COc2cc(F)c(-c3nn4c(c3Cl)CCCC4)cc21` ?
Given back: 40

====

system: barley; assay: Test B preemergence/postemergence greenhouse plant response rating 0 to 10; type: in vivo, Hordeum vulgare; conditions: POSTEMERGENCE, Rate 50 g/ha; 0 to 10 scale
# Lookup of reported Plant response rating, Barley keyed by entry
Format: numeric value only, no unit, no commentary.

smiles_str | Plant response rating, Barley
O=C1COc2cc(F)c(-c3nn4c(c3Cl)CCCC4)cc2N1 | 3

Asked: Using the record for `COCOc1cc(-c2nn3c(c2Br)CCCC3)c(F)cc1Cl` , report its Plant response rating, Barley.
Given back: 3

Asked: Similarly, `COC(=O)c1cc(-c2nn3c(c2Cl)CCCC3)c(F)cc1Cl` ?
Given back: 3

Asked: Similarly, `COCCN1C(=O)COc2cc(F)c(-c3nn4c(c3Cl)CCCC4)cc21` ?
Given back: 6

Asked: Similarly, `CCCN1C(=O)COc2cc(F)c(-c3nn4c(c3Br)CCCC4)cc21` ?
Given back: 5

Asked: Similarly, `Clc1ccc(-c2nn3c(c2Cl)CCCC3)c(Cl)c1` ?
Given back: 2

Asked: Similarly, `Fc1cc(Cl)ccc1-c1nn2c(c1Br)CCCC2` ?
Given back: 5

Asked: Similarly, `CCOC(=O)COc1cc(-c2nn3c(c2Cl)CCCC3)c(F)cc1Cl` ?
Given back: 3

Asked: Similarly, `O=C1COc2cc(F)c(-c3nn4c(c3Br)CCCC4)cc2N1` ?
Given back: 3
